read-out: Collagen III, COL3A1 (gene 1281); assay: BSK_hDFCGF_CollagenIII: BioMAP Diversity Plus: hDFCGF Assay for Collagen III Biomarker Activity (AID 2283056); conditions: primary human foreskin fibroblasts; actives raise or lower the signal
Calls of active or inactive are those of the source. Rule for the calls: active = hit-call score of the fitted dose curve at least 0.9, where 1 is the maximum; inactive = score below 0.9.
Log the outcome using a class from 1 (yes) = active, 0 (no) = inactive

Past entries and their recorded results:
{"COMPOUND": "Cc1ccc(O)c(C(C)(C)C)c1", "QUALITATIVE_LABEL": "1 (yes)"}
{"COMPOUND": "CC(C)c1ccc(C(C)C)cc1", "QUALITATIVE_LABEL": "0 (no)"}
{"COMPOUND": "CNC[C@H](O)c1cccc(O)c1", "QUALITATIVE_LABEL": "0 (no)"}

What is the recorded call for this compound in the test? O=C(O)C[C@H](O)C[C@H](O)/C=C/c1c(C2CC2)nc2ccccc2c1-c1ccc(F)cc1
0 (no)

What is the recorded call for this compound in the test? CC1CCC(C(C)CS)CC1S (stereo unspecified)
1 (yes)

What is the recorded call for this compound in the test? CN(CCOc1ccc(CC2SC(=O)NC2=O)cc1)c1ccccn1 (stereo unspecified)
0 (no)
